Measured inhibition, listed per entry.
Biological target: UniProtKB P20272
Sequence (P20272 whole entry): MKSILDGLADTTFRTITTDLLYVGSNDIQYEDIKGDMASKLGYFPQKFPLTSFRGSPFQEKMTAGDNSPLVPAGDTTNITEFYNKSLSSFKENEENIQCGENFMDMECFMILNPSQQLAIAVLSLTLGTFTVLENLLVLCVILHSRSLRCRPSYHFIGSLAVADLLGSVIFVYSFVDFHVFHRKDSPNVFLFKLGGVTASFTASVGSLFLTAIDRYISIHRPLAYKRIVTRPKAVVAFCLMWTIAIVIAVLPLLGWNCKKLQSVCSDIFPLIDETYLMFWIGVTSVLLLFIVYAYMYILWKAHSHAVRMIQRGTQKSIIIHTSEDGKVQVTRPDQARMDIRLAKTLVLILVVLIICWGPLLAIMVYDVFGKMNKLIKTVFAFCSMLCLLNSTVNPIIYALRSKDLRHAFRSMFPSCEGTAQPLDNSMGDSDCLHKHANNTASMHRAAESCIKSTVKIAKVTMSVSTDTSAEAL
Assay: Rat CB1 receptor binding using brain membrane, [3H]SR141716A displacement (Protocol I)
Parameters: CB1 receptor present in a rat brain membrane preparation; from tissue; host or cells: rat brain membrane; dose or concentration left out as unconfirmed
Conditions: 1 h; rat brain membrane, [3H]SR141716A displacement; read-out: % Displacement Protocol I
Express the result in % but write the number alone.

Answered cases to consult:
| Molecule | Subject Of Test | Measured Metric | Obs Value |
| --- | --- | --- | --- |
| O=C(NNc1ccc(F)cc1F)c1nn(-c2ccc(Cl)cc2Cl)c2c1C1CCC2C1 (stereo not shown) | UniProtKB P20272 | inhibition | 31.6 |
| O=C(NCc1ccccc1)c1nn(-c2ccccc2Cl)c2c1C1CCC2C1 (stereo not shown) | UniProtKB P20272 | inhibition | -1.2 |
| O=C(Nc1cccc(Br)c1)c1n[nH]c2c1C1(c3ccc(Cl)cc3)CCC2C1 (stereo not shown) | UniProtKB P20272 | inhibition | 20.5 |
| O=C(NCc1ccccc1)c1nn(-c2ccc(Cl)cc2)c2c1C1CCC2C1 (stereo not shown) | UniProtKB P20272 | inhibition | 29.5 |
| O=C(NNc1ccccc1)c1nn(-c2ccccc2Cl)c2c1C1CCC2C1 (stereo not shown) | UniProtKB P20272 | inhibition | -1.2 |

*Q* Specify reported inhibition for the molecule shown: O=C(NN1CCCCC1)c1nn(-c2ccc(Cl)cc2)c2c1C1CCC2C1 (stereo not shown)
*A* 23.5
